# assay_target: T1, Nt.BspD6I (UniProt A3FEV7 1-604)
# T1 sequence: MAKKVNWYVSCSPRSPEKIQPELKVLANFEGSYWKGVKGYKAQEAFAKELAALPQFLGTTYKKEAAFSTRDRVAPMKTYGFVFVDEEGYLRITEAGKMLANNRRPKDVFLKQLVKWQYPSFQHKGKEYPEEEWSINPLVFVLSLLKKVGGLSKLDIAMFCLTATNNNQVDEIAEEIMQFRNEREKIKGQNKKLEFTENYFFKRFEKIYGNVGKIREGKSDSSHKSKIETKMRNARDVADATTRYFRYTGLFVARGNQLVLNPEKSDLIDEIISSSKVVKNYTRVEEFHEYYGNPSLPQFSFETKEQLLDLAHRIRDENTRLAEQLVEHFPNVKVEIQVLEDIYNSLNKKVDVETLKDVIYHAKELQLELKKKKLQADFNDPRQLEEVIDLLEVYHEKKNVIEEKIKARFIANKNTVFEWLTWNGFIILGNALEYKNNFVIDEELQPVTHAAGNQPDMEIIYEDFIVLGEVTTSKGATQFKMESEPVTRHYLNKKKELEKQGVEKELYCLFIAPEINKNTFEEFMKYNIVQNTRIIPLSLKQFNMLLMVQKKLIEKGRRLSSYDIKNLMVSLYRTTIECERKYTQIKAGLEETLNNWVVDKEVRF
# assay_summary: stopped-flow Trp fluorescence; 10 mM Mg2+; Stopped-flow, 37 °C, 10 mM CaCl2 or 10 mM MgCl2 (or 0.4 mM EDTA without divalent metal); 1 µM enzyme (Trp) or 1 µM DNA (FRET); buffer, salt and pH not in the supplied text
# cond: blunt
property_name: Kd (nM)
Answers are plain numbers, in nM.

Challenge: Reported Kd for VI-30N (dsDNA) DNA 1: GTATGAAGCTAGAGCCAGGTTGGCAGCATC DNA 2: GATGCTGCCAACCTGGCTCTAGCTTCATAC : what is it?
Response given: 70
